System: HCT-15 cell lines
Assay: MTT cytotoxicity assay, HCT-15
Type: cell-based, human
Details: Homo sapiens, HCT-15; 72 h (3-Days) drug exposure, MTT; read-out: IC50 HCT-15
Each entry below carries its recorded IC50.
assay_metric: IC50

molecule: Cc1cc(F)ccc1NC(=O)N1CCN(Cc2nc3ccccc3c(=O)[nH]2)CC1
observed: 29.8 µM

molecule: Cc1ccc(Cl)c(NC(=O)N2CCN(Cc3nc4ccccc4c(=O)[nH]3)CC2)c1
observed: 25.4 µM

molecule: O=C(Nc1cc(C(F)(F)F)cc(C(F)(F)F)c1)N1CCN(Cc2nc3ccccc3c(=O)[nH]2)CC1
observed: 21 µM

molecule: O=C(Nc1cc(F)cc(F)c1)N1CCN(Cc2nc3ccccc3c(=O)[nH]2)CC1
observed: 47.2 µM

molecule: Cc1ccc(Cl)cc1NC(=O)N1CCCN(Cc2nc3ccccc3c(=O)[nH]2)C1
observed: 13.7 µM

molecule: O=C(Nc1cccc(Cl)c1)N1CCN(Cc2nc3ccccc3c(=O)[nH]2)CC1
observed: 19.1 µM

molecule: O=C(Nc1cc(F)ccc1F)N1CCN(Cc2nc3ccccc3c(=O)[nH]2)CC1
observed: 33.1 µM

molecule: O=C(Nc1ccccc1Cl)N1CCN(Cc2nc3ccccc3c(=O)[nH]2)CC1
observed: 19.1 µM

molecule: Cc1ccc(NC(=O)N2CCN(Cc3nc4ccccc4c(=O)[nH]3)CC2)c(F)c1
observed: 21.7 µM

molecule: Cc1ccc(Cl)cc1NC(=O)N1C2CC1CN(Cc1nc3ccccc3c(=O)[nH]1)C2
observed: 2.89 µM

molecule: Cc1ccc(Cl)cc1NC(=O)N1C[C@@H]2C[C@H]1CN2Cc1nc2ccccc2c(=O)[nH]1
observed: 12.5 µM

molecule: Cc1cccc(NC(=O)N2CCN(Cc3nc4ccccc4c(=O)[nH]3)CC2)c1
observed: 25.6 µM

molecule: O=C(Nc1ccccc1F)N1CCN(Cc2nc3ccccc3c(=O)[nH]2)CC1
observed: 18.4 µM

molecule: Cc1c(F)cccc1NC(=O)N1CCN(Cc2nc3ccccc3c(=O)[nH]2)CC1
observed: 30.3 µM

molecule: Cc1cccc(C)c1NC(=O)N1CCN(Cc2nc3ccccc3c(=O)[nH]2)CC1
observed: 35 µM

molecule: O=C(Nc1ccc(F)cc1)N1CCN(Cc2nc3ccccc3c(=O)[nH]2)CC1
observed: > 50 µM

molecule: O=C(Nc1ccc(F)c(Cl)c1)N1CCN(Cc2nc3ccccc3c(=O)[nH]2)CC1
observed: 25.2 µM

molecule: O=C(Nc1ccc(C(F)(F)F)cc1F)N1CCN(Cc2nc3ccccc3c(=O)[nH]2)CC1
observed: 22.8 µM

molecule: Cc1ccc(Cl)cc1NC(=O)N1CCN(Cc2nc3ccccc3c(=O)[nH]2)CC1C (stereo not shown)
observed: 6.37 µM
